Target System: Phosphodiesterase 4 (Homo sapiens, UniProt P27815+Q08499+Q07343+Q08493)
Assay type: protein assay
Assay Endpoint: Ki (nM)
Quick reminder: number only, in nM, skip the unit.

Consider the molecule shown here: `Cc1cn(Cc2ccc(C(F)(F)F)cc2)c2cc(C(=O)Nc3c(Cl)c[n+]([O-])cc3Cl)ccc12` What is its recorded Ki?
67

Consider the molecule shown here: `Cc1cn(Cc2ccccc2)c2cc(C(=O)Nc3c(Cl)c[n+]([O-])cc3Cl)ccc12` What is its recorded Ki?
60

Consider the molecule shown here: `Cc1cn(Cc2ccc(S(C)(=O)=O)cc2)c2cc(C(=O)Nc3c(Cl)c[n+]([O-])cc3Cl)ccc12` What is its recorded Ki?
1124

Consider the molecule shown here: `Cc1cn(Cc2ccc(Cl)cc2)c2cc(C(=O)Nc3c(Cl)c[n+]([O-])cc3Cl)ccc12` What is its recorded Ki?
71

Consider the molecule shown here: `Cc1cn(CC2CCCCCC2)c2cc(C(=O)Nc3c(Cl)c[n+]([O-])cc3Cl)ccc12` What is its recorded Ki?
30

====

Tested on: Mus musculus
Procedure Details: In vivo inhibition of LPS induced tumor necrosis factor (TNF-alpha) in mice
Format: functional
Provide the recorded ED50 for the entries that follow.
Quick reminder: number only, in mg/kg, skip the unit.

Consider the compound shown here: `Cc1cn(Cc2ccccc2)c2cc(C(=O)Nc3c(Cl)c[n+]([O-])cc3Cl)ccc12` What is its recorded ED50?
20

Consider the compound shown here: `Cc1cn(CCC2CCCCC2)c2cc(C(=O)Nc3c(Cl)c[n+]([O-])cc3Cl)ccc12` What is its recorded ED50?
7.4

Consider the compound shown here: `Cc1cn(Cc2ccc(C(F)(F)F)cc2)c2cc(C(=O)Nc3c(Cl)c[n+]([O-])cc3Cl)ccc12` What is its recorded ED50?
10
